Consider the following molecules; for each one, report its Residual rate of oligosaccharides: HPLC purity (%).
Assay: Storage stability of Oligosaccharide Crystals (I) and freeze-dried Oligosaccharide (I) powders (residual rate by HPLC)
Type: physicochemical
Conditions: 105° C. in the atmosphere under ordinary pressure; days that passed: 7
Description: The storage stability of Oligosaccharide Crystals (I) obtained in Examples 1 to 3 and freeze-dried Oligosaccharide (I) powders obtained in Reference Examples 1 to 3 was examined by keeping them at 105° C. in the atmosphere under ordinary pressure for 20 days and measuring the residual rate of Oligosaccharides (I). The residual rate of Oligosaccharides (I) in the samples was measured by high performance liquid chromatography (HPLC) and expressed in terms of HPLC purity (%) […]
Only the number, expressed in %, is required.

Quick one: Residual rate of oligosaccharides: HPLC purity (%) for CC(=O)N[C@H]1[C@H](O[C@H]2[C@@H](O)[C@@H](CO)O[C@@H](O[C@H]3[C@H](O)[C@@H](O)C(O)O[C@@H]3CO)[C@@H]2O)O[C@H](CO)[C@@H](O)[C@@H]1O (stereo partly drawn) [Freeze-dried GlcNAcβ1, 3Gal-β1, 4Glc powders] [GlcNAcβ1,3Galβ1,4Glc] ?
98.8

Fill blank: measured Residual rate of oligosaccharides: HPLC purity (%) of the molecule CC(=O)N[C@H]1[C@H](O[C@H]2[C@@H](O)[C@@H](CO)O[C@@H](O[C@H]3[C@H](O)[C@@H](O)C(O)O[C@@H]3CO)[C@@H]2O)O[C@H](CO)[C@@H](O[C@@H]2O[C@H](CO)[C@H](O)[C@H](O[C@@H]3O[C@H](CO)[C@@H](O)[C@H](O)[C@H]3NC(C)=O)[C@H]2O)[C@@H]1O (stereo partly drawn) [Freeze-dried GlcNAcβ1, 3Gal-β1, 4GlcNAcβ1, 3Galβ1, 4Glc powd] [GlcNAcβ1,3Galβ1,4GlcNAcβ1,3Galβ1,4Glc] is ____.
95.4

Consider the molecule CC(=O)N[C@H]1[C@H](O[C@H]2[C@@H](O)[C@@H](CO)O[C@@H](O[C@H]3[C@H](O)[C@@H](O)C(O)O[C@@H]3CO)[C@@H]2O)O[C@H](CO)[C@@H](O[C@@H]2O[C@H](CO)[C@H](O)[C@H](O[C@@H]3O[C@H](CO)[C@@H](O)[C@H](O)[C@H]3NC(C)=O)[C@H]2O)[C@@H]1O (stereo partly drawn) [Crystals No. 3] and give its measured Residual rate of oligosaccharides: HPLC purity (%).
99.0
